Assay: gradient 5% acetonitrile 3 min, to 50% in 2 min, to 85% in 15 min, held 3 min, 100 µL/min
Conditions: column: Zorbax Extend-C18 2.1 x 50 mm; eluents: water / acetonitrile, 0.1% formic acid
QUANTITY_NAME: RP-LC retention time (s)

>>> endpoint_value("Cc1ccc(CNC(=O)C2(C)CCCN(C(=O)Nc3cc(C)cc(C)c3)C2)cc1 (stereo not drawn)")
912
>>> endpoint_value("COC(=O)C1=CN(c2cc(OC)cc(OC)c2)c2cc(F)ccc2S1(=O)=O")
904
>>> endpoint_value("NS(=O)(=O)c1ccc(NC(=O)C2CCCN(c3ncnc4c3nc3n4CCCCC3)C2)cc1 (stereo not drawn)")
659
>>> endpoint_value("Cc1noc(-c2nn(C)c3c2CN(C(=O)COc2ccc(F)cc2)CC3)n1")
740
>>> endpoint_value("CCC(=O)Nc1ccc2c(c1)nc(CN1CCN(S(C)(=O)=O)CC1)n2CC")
586
>>> endpoint_value("CCCNC(=O)c1cc2c(s1)N(CC1CC1)CCCC2")
1020
>>> endpoint_value("CCN1C(=O)c2cccc3c(NC(=O)Nc4cccc(Cl)c4)ccc1c23")
889
>>> endpoint_value("O=S(=O)(Cc1ccccc1F)N1CCCC(Cn2c(C3CC3)nc3cccnc32)C1 (stereo not drawn)")
732
